// CGM (Fungicidal Activities, C.V.) lookup, one value per entry
# System: Botrytis cinerae
# assay_explanation: Fungicidal activity against Cucumber Gray Mold Rot (CGM) disease
# Type: in vivo
# condition_description: Cucumber Gray Mold Rot; concentration 50 ppm
# Procedure: Botrytis cinerae, which was isolated from cucumber infected thereby, was inoculated on a PDA agar medium and cultured under a 12L/12D cycle at 25° C. for 15 days to form spore. The spores were scraped, filtered through a gauze and then suspended in potato dextrose liquid medium at a concentration of 1×10^6 spore/ml. The spore suspension was sprayed on a cucumber plant having one leaf. […] L.A. on a leaf was measured to calculate an C.V.
Answer in %, number only, no unit symbol.

These solved cases illustrate the format of a correct answer.
COC=C(C(=O)OC)c1ccccc1CON=Cc1cccc(OC(F)=Cc2cccc(Cl)c2)c1
36
CNC(=O)C(=NOC)c1ccccc1CON=C(C)c1cccc(OC(F)=Cc2cccc(OC)c2)c1
77
COC=C(C(=O)OC)c1ccccc1CON=Cc1cccc(OC(F)=Cc2cc(C)cc(C)c2)c1
17

Please find the next compound below.
# get_value(readout='CGM (Fungicidal Activities, C.V.)', item= CON=C(C(=O)OC)c1ccccc1CON=Cc1cccc(OC(F)=C(c2ccc(F)cc2)C(F)(F)F)c1 ) 71
